Notes on Ki obtained with FKBP12 (Homo sapiens).
Readout kind: Ki

| Molecule | Result |
| --- | --- |
| CC(C)(C)C(=O)C(=O)N1CCC[C@H]1C(=O)OCCC(c1ccccc1)c1ccccc1 [Compound 28] | 5 nM |
| CCC(C)(C)C(=O)C(=O)N1CCC[C@H]1C(=O)OCCCc1cc(OC)ccc1OC [Compound 14] | 250 nM |
| CCC(C)(C)C(=O)C(=O)N1CCC[C@H]1C(=O)OCCC(c1ccccc1)c1ccccc1 [Compound 25] | 5 nM |
| CCC(C)(C)C(=O)C(=O)N1CCC[C@H]1C(=O)OCCCc1cccnc1 [Compound 17] | 5 nM |

====

// values below are reported pKi
# Assay system: FKBP12 (Homo sapiens, UniProt P62942)
# Sequence (P62942 whole entry, species assumed): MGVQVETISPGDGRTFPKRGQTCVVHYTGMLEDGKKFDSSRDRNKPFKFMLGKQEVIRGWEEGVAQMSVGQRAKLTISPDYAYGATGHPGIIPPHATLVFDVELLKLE
pKi: −log10 of the molar value.

| Compound | pKi |
| --- | --- |
| CCC(C)(C)C(=O)C(=O)N1CCC[C@H]1C(=O)OCCCc1ccccn1 [Compound 18] | 6.71 |
| CCC(C)(C)C(=O)C(=O)N1CCC[C@H]1C(=O)OCCCc1ccc2c(c1)OCO2 [Compound 5] | 6.77 |
| CCC(C)(C)C(=O)C(=O)N1CCC[C@H]1C(=O)OCCCC1CCCCC1 [Compound 7] | 6.70 |
